The measurements presented in this section are drawn from BigSolDB 2.1.

Conditions: in 2-ethylhexanol, 333.15 K
METRIC NAME: solubility (mole fraction)

O=C(O)c1ccc(C(=O)O)cc1 0.000482

###

Details: in pyridine, 343.15 K
METRIC NAME: solubility (mole fraction)

O=C(O)c1ccc(C(=O)O)cc1 0.077

###

Conditions: in DMAc, 328.15 K
METRIC NAME: solubility (mole fraction)

O=C(O)c1ccc(C(=O)O)cc1 0.0304

###

Conditions: in NMP, 353.15 K
METRIC NAME: solubility (mole fraction)

O=C(O)c1ccc(C(=O)O)cc1 0.0985
